Give pKd for every item shown.
# ASSAYED_SYSTEM: T1, recombinant human IL-36R extracellular domain expressed with a C-terminal myc-myc-hexahistidine tag (human, UniProt Q9HB29 20-337)
# T1 construct: also called hIL-36R-MMH; hIL-36R.mmH
# T1 sequence (Q9HB29 other isoform, or with tags, fused parts or gaps limits assumed): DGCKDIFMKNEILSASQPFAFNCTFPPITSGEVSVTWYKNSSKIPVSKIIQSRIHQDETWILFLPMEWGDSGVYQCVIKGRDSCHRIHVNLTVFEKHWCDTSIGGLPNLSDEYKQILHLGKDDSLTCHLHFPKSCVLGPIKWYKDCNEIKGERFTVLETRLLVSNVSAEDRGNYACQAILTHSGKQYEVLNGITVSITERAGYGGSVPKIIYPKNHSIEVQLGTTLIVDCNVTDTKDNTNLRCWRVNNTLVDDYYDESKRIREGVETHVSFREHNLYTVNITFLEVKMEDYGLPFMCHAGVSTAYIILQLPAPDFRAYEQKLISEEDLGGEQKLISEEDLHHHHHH
# METHOD_SUMMARY: SPR (Biacore 4000), mAb captured on anti-human Fc, 37°C
Here pKd is given on a logarithmic scale as minus log10 of the concentration in mol/L.

*Q* May I ask what pKd has been recorded for H4H14758P (antibody, human IgG4 S228P, kappa, V domains shown) VH: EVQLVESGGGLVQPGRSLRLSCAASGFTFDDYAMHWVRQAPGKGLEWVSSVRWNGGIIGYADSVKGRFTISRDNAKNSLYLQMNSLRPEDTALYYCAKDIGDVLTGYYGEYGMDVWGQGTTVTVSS VL: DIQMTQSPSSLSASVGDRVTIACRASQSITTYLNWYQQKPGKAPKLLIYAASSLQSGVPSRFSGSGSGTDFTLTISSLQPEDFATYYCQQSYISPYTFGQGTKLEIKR ?
*A* 7.82

*Q* Another: H4H14700P2 (antibody, human IgG4 S228P, kappa, V domains shown) VH: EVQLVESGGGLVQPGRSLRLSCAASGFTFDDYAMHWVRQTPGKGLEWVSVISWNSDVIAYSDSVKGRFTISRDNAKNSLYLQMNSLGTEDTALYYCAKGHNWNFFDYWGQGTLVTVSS VL: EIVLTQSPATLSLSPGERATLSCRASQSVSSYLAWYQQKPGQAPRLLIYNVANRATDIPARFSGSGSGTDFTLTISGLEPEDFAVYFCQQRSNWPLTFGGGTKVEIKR
*A* 7.98

*Q* Another: H4H14699P2 (antibody, human IgG4 S228P, kappa, V domains shown, Fully human anti-IL-36R antibody) VH: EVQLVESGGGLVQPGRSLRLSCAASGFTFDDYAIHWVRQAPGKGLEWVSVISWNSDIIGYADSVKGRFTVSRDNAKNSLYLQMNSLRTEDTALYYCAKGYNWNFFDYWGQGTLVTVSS VL: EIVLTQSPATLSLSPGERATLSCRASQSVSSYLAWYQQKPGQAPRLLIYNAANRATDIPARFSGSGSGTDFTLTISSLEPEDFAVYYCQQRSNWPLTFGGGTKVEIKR
*A* 7.53

*Q* Another: H4H14728P (antibody, human IgG4 S228P, kappa, V domains shown) VH: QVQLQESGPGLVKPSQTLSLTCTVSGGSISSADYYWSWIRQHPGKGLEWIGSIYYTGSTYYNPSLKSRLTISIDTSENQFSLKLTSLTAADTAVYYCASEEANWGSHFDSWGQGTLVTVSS VL: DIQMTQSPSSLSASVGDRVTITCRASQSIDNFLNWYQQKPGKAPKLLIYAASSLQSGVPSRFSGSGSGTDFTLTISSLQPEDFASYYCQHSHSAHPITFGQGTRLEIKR
*A* 7.67
